Please provide measured pIC50 for the entries that follow.
Tested on: PC12#5F7
Experiment: Cell proliferation assay (CCK-8 or CellTiter-Glo, 72 hours)
Type: cell-based
Details: Rat pheochromocytoma PC12#5F7, SDHB exon 2 + 3 KD (heterozygote) by CRISPR-Cas9, read-out: Antiproliferation activity IC50, mean ± SD
pIC50: −log10 of the molar value.

Write down the reported pIC50 of Cc1ccc(NC(=O)c2ccc(CN3CCN(C)CC3)cc2)cc1Nc1nc(-c2cccnc2)cs1 [Masitinib] , test system: PC12#5F7.
< 5.00

Could you share what pIC50 was measured for Cc1cn(-c2cc(NC(=O)c3ccc(C)c(Nc4nccc(-c5cccnc5)n4)c3)cc(C(F)(F)F)c2)cn1 [Nilotinib] , tested on PC12#5F7?
< 5.00

Lab note: need pIC50 with PC12#5F7 for entry COc1cc2c(Oc3ccc4[nH]c(C)cc4c3F)ccnc2cc1OCC1(N)CC1 [Anlotinib] , please look it up.
5.24

What pIC50 appears in the records for this compound with PC12#5F7? CC1(COc2ccc3c(c2)ncn3-c2ccc3cccc(N4CCC(N)CC4)c3n2)COC1 [Crenolanib]
< 5.00

I'm curious: which pIC50 was measured for C=CC(=O)N[C@H]1CCOC[C@H]1Nc1ncc2cc(-c3c(Cl)c(OC)cc(OC)c3Cl)ccc2n1 [Fisogatinib] tested on PC12#5F7?
< 5.00

Requested read-out pIC50, target or system PC12#5F7, entry Cc1cc2cc(Oc3ccnc(Nc4cccc(CS(=O)(=O)NCCN(C)C)c4)n3)ccc2[nH]1 [Sulfatinib]
< 5.00
